Source of measurements: ChEMBL document CHEMBL4834434

target_of_assay: hERG (KCNH2) (Homo sapiens)
Sequence (Q12809 whole entry): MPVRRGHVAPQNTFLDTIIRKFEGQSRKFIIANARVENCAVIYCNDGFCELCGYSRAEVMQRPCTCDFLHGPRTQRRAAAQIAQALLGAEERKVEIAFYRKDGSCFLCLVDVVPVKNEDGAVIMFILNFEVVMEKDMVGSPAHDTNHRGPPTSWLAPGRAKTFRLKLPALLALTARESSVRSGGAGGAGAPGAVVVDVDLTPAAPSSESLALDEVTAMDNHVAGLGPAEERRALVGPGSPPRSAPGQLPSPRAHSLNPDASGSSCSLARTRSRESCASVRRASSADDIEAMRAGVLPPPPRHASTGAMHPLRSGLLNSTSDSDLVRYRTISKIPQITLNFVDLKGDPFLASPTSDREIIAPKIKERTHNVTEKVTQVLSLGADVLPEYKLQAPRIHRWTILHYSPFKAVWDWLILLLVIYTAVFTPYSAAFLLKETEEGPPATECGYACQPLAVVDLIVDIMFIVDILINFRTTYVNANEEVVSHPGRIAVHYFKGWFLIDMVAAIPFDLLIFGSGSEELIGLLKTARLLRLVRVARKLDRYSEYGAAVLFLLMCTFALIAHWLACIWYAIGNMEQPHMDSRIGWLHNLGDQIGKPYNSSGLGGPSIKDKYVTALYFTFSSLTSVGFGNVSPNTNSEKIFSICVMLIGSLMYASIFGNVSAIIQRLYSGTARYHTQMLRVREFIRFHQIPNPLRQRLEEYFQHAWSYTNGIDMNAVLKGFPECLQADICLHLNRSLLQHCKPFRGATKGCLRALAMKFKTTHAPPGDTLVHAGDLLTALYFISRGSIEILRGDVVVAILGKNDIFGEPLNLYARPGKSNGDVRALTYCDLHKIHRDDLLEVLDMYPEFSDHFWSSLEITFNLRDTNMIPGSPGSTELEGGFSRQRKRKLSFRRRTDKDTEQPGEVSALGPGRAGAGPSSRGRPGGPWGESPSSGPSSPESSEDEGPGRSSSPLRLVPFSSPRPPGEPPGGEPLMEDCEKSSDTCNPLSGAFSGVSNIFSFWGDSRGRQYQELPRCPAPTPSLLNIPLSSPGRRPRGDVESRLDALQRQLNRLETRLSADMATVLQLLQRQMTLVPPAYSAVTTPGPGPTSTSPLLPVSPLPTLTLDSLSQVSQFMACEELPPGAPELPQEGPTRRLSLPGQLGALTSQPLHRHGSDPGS
test_summary: Inhibition of human ERG expressed in CHO cells at 30 uM with holding potential at -80 to -60 mV for 500s followed by raise in potential at +30 mV for 2 sec and subsequent repolarization to -60 mV for 2 sec by whole-cell patch clamp method relative to control
Assay type: cell-based
setup_conditions: CHO cells expressing human ERG
measured_endpoint: inhibition at 2 s, 30 µM (%)

1. Cc1cc(C)n(Cc2ccc(C(=O)Nc3ccc(Cl)c(Cl)c3)s2)n1 35.4
2. Cc1cc(C)n(Cc2ccc(C(=O)Nc3ccc4cc[nH]c4c3)s2)n1 33.6
3. O=C(Nc1cc(Cl)cc(Cl)c1)c1ccc(Cn2nc(C(F)(F)F)cc2C(F)(F)F)o1 49.1
4. Cc1cc(C)n(Cc2ccc(C(=O)Nc3ccc(F)cc3C)s2)n1 33.4
5. Cc1cc(C)n(Cc2ccc(C(=O)Nc3ccc(-c4cccnc4)cc3)s2)n1 44.2
